# TARGET DESC: recombinant human secreted phospholipase A2 (Homo sapiens)
# Sequence (P14555 21-144): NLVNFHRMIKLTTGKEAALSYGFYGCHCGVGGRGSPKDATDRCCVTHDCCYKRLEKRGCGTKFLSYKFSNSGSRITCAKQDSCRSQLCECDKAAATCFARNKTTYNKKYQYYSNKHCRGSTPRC
# PROTOCOL: Chromogenic assay for inhibitors of recombinant human secreted phospholipase A2 (Assay Example 1)
# Assay type: biochemical
# TEST PARAMETERS: compounds of formula 3; diheptanoyl thio-PC substrate, pH 7.5, absorbance at 405 nm
# Procedure: The following chromogenic assay procedure was used to identify and evaluate inhibitors of recombinant human secreted phospholipase A2. The assay described herein has been adapted for high volume screening using 96 well microtiter plates. […] A measured volume of racemic dipheptanoyl thio PC supplied in chloroform at a concentration of 100 mg/ml is taken to dryness and redissolved in 10 millimolar TRITON X-100™ nonionic detergent aqueous solution. […]
OBSERVED PROPERTY: IC50 (nM)

The examples below pair each entry with its known result.
COC(=O)CNC(=O)COc1cccc2c1c1c(C(N)=O)cccc1n2Cc1ccccc1 | 383
COC(=O)[C@H](C)NC(=O)COc1cccc2c1c1c(C(N)=O)cccc1n2Cc1ccccc1 | 205
COC(=O)[C@H](Cc1ccccc1)NC(=O)COc1cccc2c1c1c(C(N)=O)cccc1n2Cc1ccccc1 | 8600

[A] COC(=O)CC[C@H](NC(=O)COc1cccc2c1c1c(C(N)=O)cccc1n2Cc1ccccc1)C(=O)OC
[B] COC(=O)[C@H](CC(C)C)NC(=O)COc1cccc2c1c1c(C(N)=O)cccc1n2Cc1ccccc1
Task: Lower IC50: A or B ? Give the chosen item's label as your response.
Result: B

[A] COC(=O)[C@H](CCSC)NC(=O)COc1cccc2c1c1c(C(N)=O)cccc1n2Cc1ccccc1
[B] COC(=O)C[C@H](NC(=O)COc1cccc2c1c1c(C(N)=O)cccc1n2Cc1ccccc1)C(=O)OC
Task: So which one has the bigger IC50 here, A or B ? Give the chosen item's label as your response.
Result: B
(B: 513 nM, A: 263 nM)
